- System: MSSP (Methicillin-Susceptible Staphylococcus pseudintermedius)
- run.description: MIC against selected strains of MSSP
- Type: cell-based
- Parameters: key: MIC in μM (first well with no visible growth)
- setup.conditions: strain 86001, Table 3
result.type: MIC MSSP 86001
Write the number on its own, no unit after it.

Which measured MIC MSSP 86001 value corresponds to 96 (KWCFRVCYGRICYRRCRD; Artificial Antimicrobial peptide) [compound 96] ?
1.6

Return reported MIC MSSP 86001; argument: 5 (KWCFYVCYRGICYRRCRD; Artificial Antimicrobial peptide) [compound 5]
1.6

***
Which MIC MSSP 86001 is listed for 11 (KWCFRVCYRGICYRRCND; Artificial Antimicrobial peptide) [compound 11] ?
0.8

Data request, read-out MIC MSSP 86001, for 10 (KWCFRVCYRGICYHRCRD; Artificial Antimicrobial peptide) [compound 10]
1.6

# get_value(readout='MIC MSSP 86001', item= 9 (KWCFRVCYRGFCYRRCRD; Artificial Antimicrobial peptide) [compound 9] )
0.8

// returns reported MIC MSSP 86001 for input 4 (KFCFRVCYRGICYRRCRD; Artificial antimicrobial peptide) [compound 4]
0.8

---

- System: MSSP (Methicillin-Susceptible Staphylococcus pseudintermedius)
- run.description: MIC against selected strains of MSSP
- Format: cell-based
- Parameters: key: MIC in μM (first well with no visible growth)
- setup.conditions: strain 76986, Table 3
result.type: MIC MSSP 76986
# answer = number (no unit)

# example entries with known answers
Look up MIC MSSP 76986 with MSSP (Methicillin-Susceptible Staphylococcus pseudintermedius) for this substance: 7 (KWCFRVCYRGVCYRRCRD; Artificial Antimicrobial peptide) [compound 7]
1.6

Missing value: MIC MSSP 76986, MSSP (Methicillin-Susceptible Staphylococcus pseudintermedius), entry 6 (KWCFRVCRRGICYRRCRD; Artificial Antimicrobial peptide) [compound 6] . Fill in?
3.1

Form entry - test system: MSSP (Methicillin-Susceptible Staphylococcus pseudintermedius); read-out: MIC MSSP 76986; substance: 1 (KWCFRVCYRGICYRRCRD; Antimicrobial peptide) [compound 1]
1.6

Others:
Lookup: MIC MSSP 76986 / MSSP (Methicillin-Susceptible Staphylococcus pseudintermedius) / 3 (GWCFRVCYRGICYRRCRD; Artificial Antimicrobial peptide) [compound 3]
1.6

---

We begin with a simple list: items and their reported EC 25922.
- Tested on: E. coli ATCC 25922
- Type: cell-based
- setup.conditions: E. coli 25922, Table 6
Value expressed in µM; do not type the unit.

These recorded examples may help you get a feel for the data.
What value of measured EC 25922 is listed for 110 (KWCFRVCYRGYCYRRCRD; Artificial Antimicrobial peptide) [compound 110] ?
1.6

Field request: EC 25922 | item: 30 (PWCFRVCYRGICYRRCR; Artificial Antimicrobial peptide) [compound 30]
1.6

Give its EC 25922 value. Item: 116 (KWCFYVCYRGICYRRCND; Artificial Antimicrobial peptide) [compound 116]
0.8

Next:
Report EC 25922 for 108 (KWCFRVCYGGICYRRCRD; Artificial Antimicrobial peptide) [compound 108] please.
0.8

Sample 109 (KWCFRVCYRRICYRRCRD; Artificial Antimicrobial peptide) [compound 109] — what was its EC 25922?
1.6
